- Test system: Hepatotoxicity
- method-description: FDA HLAED, serum glutamic pyruvic transaminase (SGPT) increase
- condition-info: human

# compound, SGPT Increase - Activity Score
records = [
    ("C[C@@H]1CN(c2c(F)c(N)c3c(=O)c(C(=O)O)cn(C4CC4)c3c2F)C[C@H](C)N1", "Inactive"),
    ("CC(Cc1ccc(O)c(O)c1)C(C)Cc1ccc(O)c(O)c1 (centres undefined) [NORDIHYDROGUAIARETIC ACID]", "Inactive"),
    ("CC1(C)S[C@@H]2[C@H](NC(=O)[C@H](N)c3ccc(O)cc3)C(=O)N2[C@H]1C(=O)O", "Inactive"),
    ("Cc1ccc(Cl)c(Nc2ccccc2C(=O)O)c1Cl", "Inactive"),
    ("O=C(O)c1cc(/N=N/c2ccc(S(=O)(=O)Nc3ccccn3)cc2)ccc1O", "Active"),
    ("CCCCCc1cc(O)c2c(c1)OC(C)(C)[C@@H]1CCC(C)=C[C@@H]21", "Inactive"),
    ("Cc1ccccc1N1CCN(CCc2nnc3n2CCCC3)CC1", "Inactive"),
    ("CCOC(=O)[C@H](CCc1ccccc1)N[C@@H](C)C(=O)N1CCC[C@H]1C(=O)O", "Inactive"),
    ("CC(C)C(=O)Nc1ccc([N+](=O)[O-])c(C(F)(F)F)c1 [FLUTAMIDE]", "Active"),
    ("NCCNCCNCCN", "Inactive"),
    ("CCN1CCN(C(=O)N[C@@H](C(=O)N[C@@H]2C(=O)N3C(C(=O)O)=C(CSc4nnnn4C)CS[C@H]23)c2ccc(O)cc2)C(=O)C1=O", "Inactive"),
    ("NC(=O)OCC(COC(N)=O)c1ccccc1 [FELBAMATE]", "Active"),
    ("CC(=O)N1CCN(c2ccc(OCC3COC(Cn4ccnc4)(c4ccc(Cl)cc4Cl)O3)cc2)CC1 (centres undefined)", "Active"),
    ("COc1cc([C@@H]2c3cc4c(cc3[C@H](O)[C@H]3COC(=O)[C@H]23)OCO4)cc(OC)c1OC", "Inactive"),
    ("C[C@H](CCC(=O)O)[C@H]1CC[C@H]2[C@@H]3[C@@H](O)C[C@@H]4C[C@H](O)CC[C@]4(C)[C@H]3CC[C@]12C", "Inactive"),
    ("CO[C@@]1(NC(=O)C2SC(=C(C(N)=O)C(=O)O)S2)C(=O)N2C(C(=O)O)=C(CSc3nnnn3C)CS[C@@H]21 (some centres undefined)", "Inactive"),
    ("COC(=O)C1=C(C)NC(C)=C(C(=O)OC(C)C)C1c1cccc2nonc12 (centres undefined)", "Inactive"),
    ("CNS(=O)(=O)Cc1ccc2[nH]cc(CCN(C)C)c2c1", "Inactive"),
    ("CC(C)C[C@H]1C(=O)N2CCC[C@H]2[C@]2(O)O[C@](NC(=O)[C@@H]3C=C4c5cccc6[nH]c(Br)c(c56)C[C@H]4N(C)C3)(C(C)C)C(=O)N12", "Inactive"),
    ("Cc1cn([C@H]2C[C@H](N=[N+]=[N-])[C@@H](CO)O2)c(=O)[nH]c1=O", "Active"),
    ("CC(=O)O[C@@]12CO[C@@H]1C[C@H](O)[C@@]1(C)C(=O)[C@H](O)C3=C(C)[C@@H](OC(=O)[C@H](O)[C@@H](NC(=O)OC(C)(C)C)c4ccccc4)C[C@@](O)([C@@H](OC(=O)c4ccccc4)[C@H]21)C3(C)C.O.O.O", "Inactive"),
    ("CC[N+](C)(C)Cc1ccccc1Br.Cc1ccc(S(=O)(=O)[O-])cc1 [BRETYLIUM TOSYLATE]", "Inactive"),
    ("N=C(N)NC(=O)Cc1c(Cl)cccc1Cl", "Inactive"),
    ("CC(C)(C)NC[C@H](O)COc1ccccc1C1CCCC1", "Inactive"),
    ("CCC(=O)[C@@]1(C)[C@H](C)C[C@H]2[C@@H]3CCC4=CC(=O)C=C[C@]4(C)[C@H]3[C@@H](O)C[C@@]21C [RIMEXOLONE]", "Inactive"),
    ("CO[C@@]1(NC(=O)CSCC#N)C(=O)N2C(C(=O)O)=C(CSc3nnnn3C)CS[C@@H]21", "Inactive"),
    ("CC(C)(C)NC(=O)[C@H]1CC[C@H]2[C@@H]3CC[C@H]4NC(=O)C=C[C@]4(C)[C@H]3CC[C@]12C [FINASTERIDE]", "Inactive"),
    ("CC(=O)OCC(=O)[C@@]12OC3(CCCC3)O[C@@H]1C[C@H]1[C@@H]3CCC4=CC(=O)C=C[C@]4(C)[C@@]3(F)[C@@H](O)C[C@@]12C [AMCINONIDE]", "Inactive"),
    ("CCC(=O)O[C@H]1[C@H](O[C@@H]2[C@@H](C)[C@H](O[C@H]3C[C@@](C)(OC)[C@@H](O)[C@H](C)O3)[C@@H](C)C(=O)O[C@H](CC)[C@@](C)(O)[C@H](O)[C@@H](C)C(=O)[C@H](C)C[C@@]2(C)O)O[C@H](C)C[C@@H]1N(C)C [ERYTHROMYCIN PROPIONATE]", "Active"),
]

----------
- Test system: Hepatotoxicity
- method-description: FDA HLAED, lactate dehydrogenase (LDH) increase
- condition-info: human
Here the recorded LDH Increase - Index Value is given for each entry.

# compound, LDH Increase - Index Value
records = [
    ("CC(C)n1c(/C=C/C(O)CC(O)CC(=O)O)c(-c2ccc(F)cc2)c2ccccc21 (configuration not stated)", 0),
    ("CCOC(=O)c1ccc(C#Cc2ccc3c(c2)C(C)(C)CCS3)nc1", 0),
    ("CO[C@]12CC[C@@]3(C[C@@H]1[C@](C)(O)C(C)(C)C)[C@H]1Cc4ccc(O)c5c4[C@@]3(CCN1CC1CC1)[C@H]2O5", 0),
    ("O=c1[nH]cc(F)c(=O)[nH]1", 3.6),
    ("CCCNCC(O)COc1ccccc1C(=O)CCc1ccccc1 (configuration not stated)", 1.9),
    ("CCC(=O)O[C@@H](O[P@](=O)(CCCCc1ccccc1)CC(=O)N1C[C@H](C2CCCCC2)C[C@H]1C(=O)O)C(C)C", 0.6),
    ("CCOC(=O)/C=C(C)/C=C/C=C(C)/C=C/c1c(C)cc(OC)c(C)c1C [ETRETINATE]", 2.9),
    ("O=C(O)CCCCCCCC(=O)O", 0),
    ("CCOC(=O)[C@H](CCc1ccccc1)N[C@H]1CCc2ccccc2N(CC(=O)O)C1=O", 0.2),
    ("C[C@H]1C[C@H]2[C@@H]3CCC4=CC(=O)C=C[C@]4(C)[C@@]3(F)[C@@H](O)C[C@]2(C)[C@@]1(O)C(=O)CCl", 0),
    ("CCOC(=O)[C@H](CCc1ccccc1)N[C@@H](C)C(=O)N1CCC[C@H]1C(=O)O", 0.6),
    ("CCCc1c2oc(C(=O)O)cc(=O)c2cc2c(=O)cc(C(=O)O)n(CC)c12", 0.3),
    ("Cn1nnnc1SCC1=C(C(=O)O)N2C(=O)[C@@H](NC(=O)[C@H](O)c3ccccc3)[C@H]2SC1", 0),
    ("Nc1ccc(O)c(C(=O)O)c1", 1.1),
    ("Clc1ccc2c(c1)C(N1CCNCC1)=Nc1ccccc1O2", 0.7),
    ("CC(S)C(=O)NCC(=O)O (configuration not stated)", 0),
    ("CC1(C)S[C@@H]2[C@H](NC(=O)[C@H](NC(=O)N3CCN(S(C)(=O)=O)C3=O)c3ccccc3)C(=O)N2[C@H]1C(=O)O", 0),
]

----------
- Tested on: Hepatotoxicity
- method-description: FDA HLAED, gamma-glutamyl transferase (GGT) increase
- condition-info: human
assay-metric: GGT Increase - Number of Reports

# compound, recorded-result
records = [
    ("CNCCCC12CCC(c3ccccc31)c1ccccc12", "< 4"),
    ("NCCNCCNCCN", "< 4"),
    ("CN(N=O)C(=O)N[C@@H](C=O)[C@@H](O)[C@H](O)[C@H](O)CO", "< 4"),
    ("Cc1cccc(C)c1OCC(C)N (centres undefined)", "< 4"),
    ("COc1cc(NCc2ccc3nc(N)nc(N)c3c2C)cc(OC)c1OC [TRIMETREXATE]", "< 4"),
    ("OCc1cc(C(O)CNCCCCCCOCCCCc2ccccc2)ccc1O (centres undefined)", "< 4"),
    ("OC[C@H]1O[C@@H](n2cnc3c2NC=NC[C@H]3O)C[C@@H]1O", "< 4"),
    ("O=[N+]([O-])O[C@@H]1CO[C@H]2[C@@H]1OC[C@@H]2O [ISOSORBIDE MONONITRATE]", "< 4"),
    ("COc1ccc(CC2c3cc(OC)c(OC)cc3CC[N+]2(C)CCC(=O)OCCCCCOC(=O)CC[N+]2(C)CCc3cc(OC)c(OC)cc3C2Cc2ccc(OC)c(OC)c2)cc1OC (centres undefined)", "< 4"),
]
